Sourced from patent US20200188466A1

test-description: Plasma kinetic study of colchicine with and without Schisandrin A
Type: in vivo
conditions: male, Sprague Dawley, rat, po, 3 mg/kg, Group3, rats, Schisandrin A 6.3 mg/kg oral 5 min before colchicine 3.0 mg/kg oral, read-out: AUC0→∞ of colchicine
readout-name: AUC(0-inf) (ng·h/mL)
Field format: number, assumed ng·h/mL, no unit text.

(Q) Given the entry COc1cc2c(c(OC)c1OC)-c1ccc(OC)c(=O)cc1[C@@H](NC(C)=O)CC2 [colchicine] , report its measured AUC(0-inf).
(A) 84.5

====

test-description: Plasma kinetic study of colchicine with and without Schisandrin A
Format: in vivo
conditions: male, Sprague Dawley, rat, po, 3 mg/kg, Group5, rats, Schisandrin A 25.2 mg/kg oral 5 min before colchicine 3.0 mg/kg oral, read-out: MRT0→t of colchicine
readout-name: MRT last
// unit must come after the numeric part

(Q) Given the entry COc1cc2c(c(OC)c1OC)-c1ccc(OC)c(=O)cc1[C@@H](NC(C)=O)CC2 , report its measured MRT last.
(A) 4.04 h

====

test-description: Plasma kinetic study of celastrol with and without Schisandrin A
Type: in vivo, Sprague Dawley rats
conditions: male, Sprague Dawley, rat, plasma, po, 1.8 mg/kg, Group3; rats, Schisandrin A 5.5 mg/kg oral 5 min before celastrol 1.8 mg/kg oral; read-out: MRT0→t of celastrol
readout-name: MRT last (h)
Field format: number, assumed h, no unit text.

(Q) Given the entry CC1=C(O)C(=O)C=C2C1=CC=C1[C@@]2(C)CC[C@@]2(C)[C@@H]3C[C@](C)(C(=O)O)CC[C@]3(C)CC[C@]12C , report its measured MRT last.
(A) 13.1

====

test-description: Plasma kinetic study of colchicine with and without Schisandrin A
Format: in vivo
conditions: male, Sprague Dawley, rat, po, 3 mg/kg, Group2, rats, Schisandrin A 0 mg/kg oral 5 min before colchicine 3.0 mg/kg oral, read-out: AUC0→t of colchicine
Procedure: 42 Male Sprague Dawley rats (weight, 170-210 g) were maintained on a 12-h light/dark cycle with free access to water and lab chow for 10-14 h prior to the experiment. Rats were randomly divided into 7 groups (n=6 each) and groups 2-7 received 0 mg/kg, 6.3 mg/kg, and 12.6 mg/kg, 25.2 mg/kg, 50.4 mg/kg and 63.0 mg/kg of Schisandrin A in 1% CMC-Na (300-800 cps) via oral administration, respectively. […]
readout-name: AUC(0-t) (ng·h/mL)
Field format: number, assumed ng·h/mL, no unit text.

(Q) Given the entry COc1cc2c(c(OC)c1OC)-c1ccc(OC)c(=O)cc1[C@@H](NC(C)=O)CC2 [colchicine] , report its measured AUC(0-t).
(A) 32.9

====

test-description: Plasma kinetic study of celastrol with and without Schisandrin A
Assay type: in vivo, Sprague Dawley rats
conditions: male, Sprague Dawley, rat, plasma, po, 1.8 mg/kg, Group2; rats, Schisandrin A 0 mg/kg oral 5 min before celastrol 1.8 mg/kg oral
readout-name: Cmax (ng/mL)
Field format: number, assumed ng/mL, no unit text.

(Q) Given the entry CC1=C(O)C(=O)C=C2C1=CC=C1[C@@]2(C)CC[C@@]2(C)[C@@H]3C[C@](C)(C(=O)O)CC[C@]3(C)CC[C@]12C , report its measured Cmax.
(A) 5.94

====

test-description: Plasma kinetic study of celastrol with and without Schisandrin A
Format: in vivo, Sprague Dawley rats
conditions: male, Sprague Dawley, rat, plasma, po, 1.8 mg/kg, Group3; rats, Schisandrin A 5.5 mg/kg oral 5 min before celastrol 1.8 mg/kg oral; read-out: AUC0→t of celastrol
readout-name: AUC(0-t) (ng·h/mL)
Field format: number, assumed ng·h/mL, no unit text.

(Q) Given the entry CC1=C(O)C(=O)C=C2C1=CC=C1[C@@]2(C)CC[C@@]2(C)[C@@H]3C[C@](C)(C(=O)O)CC[C@]3(C)CC[C@]12C [celastrol] , report its measured AUC(0-t).
(A) 117

====

test-description: Plasma kinetic study of colchicine with and without Schisandrin A
Type: in vivo
conditions: male, Sprague Dawley, rat, po, 3 mg/kg, Group5, rats, Schisandrin A 25.2 mg/kg oral 5 min before colchicine 3.0 mg/kg oral
readout-name: Tmax (min)
Field format: number, assumed min, no unit text.

(Q) Given the entry COc1cc2c(c(OC)c1OC)-c1ccc(OC)c(=O)cc1[C@@H](NC(C)=O)CC2 , report its measured Tmax.
(A) 6.6

====

test-description: Plasma kinetic study of colchicine with and without Schisandrin A
Assay type: in vivo
conditions: male, Sprague Dawley, rat, po, 3 mg/kg, Group6, rats, Schisandrin A 50.4 mg/kg oral 5 min before colchicine 3.0 mg/kg oral, read-out: AUC0→t of colchicine
readout-name: AUC(0-t) (ng·h/mL)
Field format: number, assumed ng·h/mL, no unit text.

(Q) Given the entry COc1cc2c(c(OC)c1OC)-c1ccc(OC)c(=O)cc1[C@@H](NC(C)=O)CC2 , report its measured AUC(0-t).
(A) 151

====

test-description: Plasma kinetic study of celastrol with and without Schisandrin A
Assay type: in vivo, Sprague Dawley rats
conditions: male, Sprague Dawley, rat, plasma, po, 1.8 mg/kg, Group6; rats, Schisandrin A 44.0 mg/kg oral 5 min before celastrol 1.8 mg/kg oral; read-out: MRT0→t of celastrol
readout-name: MRT last
// unit must come after the numeric part

(Q) Given the entry CC1=C(O)C(=O)C=C2C1=CC=C1[C@@]2(C)CC[C@@]2(C)[C@@H]3C[C@](C)(C(=O)O)CC[C@]3(C)CC[C@]12C , report its measured MRT last.
(A) 14.9 h

====

test-description: Plasma kinetic study of celastrol with and without Schisandrin A
Type: in vivo, Sprague Dawley rats
conditions: male, Sprague Dawley, rat, plasma, po, 1.8 mg/kg, Group4; rats, Schisandrin A 11.0 mg/kg oral 5 min before celastrol 1.8 mg/kg oral
readout-name: Tmax (h)
Field format: number, assumed h, no unit text.

(Q) Given the entry CC1=C(O)C(=O)C=C2C1=CC=C1[C@@]2(C)CC[C@@]2(C)[C@@H]3C[C@](C)(C(=O)O)CC[C@]3(C)CC[C@]12C [celastrol] , report its measured Tmax.
(A) 4

====

test-description: Plasma kinetic study of colchicine with and without Schisandrin A
Format: in vivo
conditions: male, Sprague Dawley, rat, po, 3 mg/kg, Group4, rats, Schisandrin A 12.6 mg/kg oral 5 min before colchicine 3.0 mg/kg oral, read-out: AUC0→t of colchicine
readout-name: AUC(0-t) (ng·h/mL)
Field format: number, assumed ng·h/mL, no unit text.

(Q) Given the entry COc1cc2c(c(OC)c1OC)-c1ccc(OC)c(=O)cc1[C@@H](NC(C)=O)CC2 [colchicine] , report its measured AUC(0-t).
(A) 71

====

test-description: Plasma kinetic study of celastrol with and without Schisandrin A
Type: in vivo, Sprague Dawley rats
conditions: male, Sprague Dawley, rat, plasma, po, 1.8 mg/kg, Group7; rats, Schisandrin A 88.0 mg/kg oral 5 min before celastrol 1.8 mg/kg oral; read-out: T1/2 of celastrol (converted)
readout-name: half-life (h)
Field format: number, assumed h, no unit text.

(Q) Given the entry CC1=C(O)C(=O)C=C2C1=CC=C1[C@@]2(C)CC[C@@]2(C)[C@@H]3C[C@](C)(C(=O)O)CC[C@]3(C)CC[C@]12C , report its measured half-life.
(A) 9.29

====

test-description: Plasma kinetic study of colchicine with and without Schisandrin A
Assay type: in vivo
conditions: male, Sprague Dawley, rat, po, 3 mg/kg, Group4, rats, Schisandrin A 12.6 mg/kg oral 5 min before colchicine 3.0 mg/kg oral, read-out: MRT0→t of colchicine
readout-name: MRT last (h)
Field format: number, assumed h, no unit text.

(Q) Given the entry COc1cc2c(c(OC)c1OC)-c1ccc(OC)c(=O)cc1[C@@H](NC(C)=O)CC2 [colchicine] , report its measured MRT last.
(A) 3.95

====

test-description: in vivo
Parameters: species or system Sprague Dawley rats
conditions: male, Sprague Dawley, rat, po, 2.4 mg/kg, AUC0→∞ of triptolide
readout-name: AUC(0-inf) (ng·h/mL)
Field format: number, assumed ng·h/mL, no unit text.

(Q) Given the entry CC(C)[C@]12O[C@H]1[C@@H]1O[C@]13[C@]1(O[C@H]1C[C@H]1C4=C(CC[C@@]13C)C(=O)OC4)[C@@H]2O [triptolide] , report its measured AUC(0-inf).
(A) 31.5

====

test-description: Plasma kinetic study of celastrol with and without Schisandrin A
Assay type: in vivo, Sprague Dawley rats
conditions: male, Sprague Dawley, rat, plasma, po, 1.8 mg/kg, Group3; rats, Schisandrin A 5.5 mg/kg oral 5 min before celastrol 1.8 mg/kg oral; read-out: AUC0→∞ of celastrol
readout-name: AUC(0-inf) (ng·h/mL)
Field format: number, assumed ng·h/mL, no unit text.

(Q) Given the entry CC1=C(O)C(=O)C=C2C1=CC=C1[C@@]2(C)CC[C@@]2(C)[C@@H]3C[C@](C)(C(=O)O)CC[C@]3(C)CC[C@]12C [celastrol] , report its measured AUC(0-inf).
(A) 124
